Record form. Attribute: IC50. Fill in for each entry.
biological target: recombinant human MetAP-2 (Homo sapiens, UniProt P50579); construct: His tag (N); TEV cleavage site (N); test: Enzymatic activity assay of Methionine aminopeptidase 2 (enzyme coupled assay, Met-Ala-Ser substrate); conditions: recombinant human MetAP-2 (His-Tev-MetAP-2), absorbance at 450 nm, kinetic mode, read-out: MeAP2 IC50
Sequence (P50579 whole entry): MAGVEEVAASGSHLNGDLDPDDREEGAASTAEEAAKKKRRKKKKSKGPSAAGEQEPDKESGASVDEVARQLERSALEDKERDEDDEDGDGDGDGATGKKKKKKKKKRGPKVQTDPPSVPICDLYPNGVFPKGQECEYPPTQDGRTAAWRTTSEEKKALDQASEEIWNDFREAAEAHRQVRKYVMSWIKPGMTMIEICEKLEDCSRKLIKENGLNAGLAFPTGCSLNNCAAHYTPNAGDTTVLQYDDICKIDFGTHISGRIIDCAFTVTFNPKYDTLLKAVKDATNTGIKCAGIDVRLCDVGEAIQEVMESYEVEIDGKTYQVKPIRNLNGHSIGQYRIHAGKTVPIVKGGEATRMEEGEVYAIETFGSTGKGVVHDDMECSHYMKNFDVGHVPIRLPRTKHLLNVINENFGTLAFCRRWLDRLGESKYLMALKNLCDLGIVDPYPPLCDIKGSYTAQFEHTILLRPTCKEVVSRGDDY

# example entries with known answers
query_smiles=O=C(NCc1cc(F)cc(F)c1)[C@@]1(O)CCN(c2ccc(P(=O)(C3CC3)C3CC3)cc2)C1=O readout_name=IC50 endpoint_result="< 1 µM"
query_smiles=CCP(=O)(CC)c1ccc(N2CC[C@@](O)(C(=O)NCc3cc(F)cc(F)c3)C2=O)cc1 readout_name=IC50 endpoint_result="1 to 10 µM"
query_smiles=CC(C)P(=O)(c1ccc(N2CC[C@@](O)(C(=O)NCc3cc(F)cc(Cl)c3)C2=O)cc1)C(C)C readout_name=IC50 endpoint_result="> 10 µM"

Continue with the next compound.
Prompt line: Please give the measured IC50 for this compound: CC(C)P(=O)(c1ccc(N2CC[C@](O)(C(=O)NCc3cc(F)cc(F)c3)C2=O)cc1)C(C)C
Response line: < 1 µM
